- test description: reduction of polyQ htt aggregates in cells – imaging, exon1htt(103Q)mCFP cells, high-content imaging, primary screen (AID 483);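 also: compound exposure lasted 3 days before fixation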
- measurement parameters: exon1htt(103Q)mCFP cell line, aggregate imaging, at 2 µM; active compounds read high
Reported inhibition of aggregation values follow for various compounds
Please respond with the number in % and leave the unit unwritten.

Notebook: COCCSc1nnc(NC(=O)CSCc2ccccc2)s1 , inhibition of aggregation read as 3.8

###

- tgt: Voltage-gated potassium channel subunit beta-2 (Rattus norvegicus) (UniProt P62483)
- Sequence (P62483 whole entry, looked up): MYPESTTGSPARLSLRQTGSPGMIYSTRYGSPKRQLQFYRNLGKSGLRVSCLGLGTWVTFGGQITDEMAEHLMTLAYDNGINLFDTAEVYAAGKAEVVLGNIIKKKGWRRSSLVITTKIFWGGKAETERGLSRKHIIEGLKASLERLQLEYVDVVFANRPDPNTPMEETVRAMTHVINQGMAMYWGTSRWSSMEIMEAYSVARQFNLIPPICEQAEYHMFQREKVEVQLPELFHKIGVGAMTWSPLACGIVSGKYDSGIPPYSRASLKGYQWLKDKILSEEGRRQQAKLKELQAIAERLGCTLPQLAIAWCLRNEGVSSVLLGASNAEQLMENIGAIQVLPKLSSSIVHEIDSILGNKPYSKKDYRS
- test description: inhibitors of rat Kvbeta2 reductase activity – biochemical, NADPH fluorescence, primary screen (AID 622);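 also: slope of raw intensity against log time taken from 70 to 1610 s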
- measurement parameters: recombinant KvBeta, 4-cyanobenzaldehyde reduction, at 10 µM, active compounds read high
Threshold check on fluorescence slope: at or above -0.5 gives Yes, strictly below gives No.

compound | discrete label
CC(C)(C)OC(=O)N1CCN(c2ccc(NC(=O)c3cc4ccccc4oc3=O)cc2)CC1 | No
COc1ccc(OC)c(NC(=O)C23CCC(C)(C(=O)C2)C3(C)C)c1 (centres undefined) | Yes

In: Please tell me: is the compound CC(=O)Nc1ccc(Cc2ccncc2)cc1 at or over -0.5 in terms of fluorescence slope?
Out: Yes
